test.method.notes: Cmax in iv dosed Swiss Albino mouse plasma
Type: ADME, organism-based
Parameters: route intravenous
Please provide measured Cmax for the entries that follow.
Respond with the bare value in ng/mL.

What does the record list as Cmax for COc1ccc(C2=C(c3cc(OC)c(OC)c(OC)c3)/C(=N\O)C(O)C2)cc1 (configuration not stated) ?
7050

What does the record list as Cmax for COc1ccc(/C=C\c2cc(OC)c(OC)c(OC)c2)cc1O ?
3830

* * *

System: DU-145
test.method.notes: Cytotoxicity against human DU145 cells after 72 hrs by MTT assay
Format: cell-based
test.conditions: Homo sapiens, DU-145, 72 h; read-out: IC50
measured.attribute: IC50 (µg/mL)
Respond with the bare value in µg/mL.

What does the record list as IC50 for COc1ccc(C2=C(c3cc(OC)c(OC)c(OC)c3)/C(=N\O)CC2O)cc1 (centres undefined) ?
34.2

What does the record list as IC50 for COc1ccc(C2=C(c3cc(OC)c(OC)c(OC)c3)/C(=N\O)CC2OC(C)=O)cc1 (stereo in doubt; 40) ?
21

What does the record list as IC50 for COc1ccc(/C=C\c2cc(OC)c(OC)c(OC)c2)cc1O ?
57

What does the record list as IC50 for COc1ccc(C2=C(c3cc(OC)c(OC)c(OC)c3)/C(=N\O)CC2OC(C)=O)cc1O (centres undefined) ?
23

* * *

System: DU-145
test.method.notes: Cytotoxicity against human DU145 cells after 72 hrs by MTT assay
Type: cell-based
test.conditions: Homo sapiens, DU-145, 72 h; read-out: IC50
Please provide measured IC50 for the entries that follow.
Respond with the bare value in µg/mL.

# query: IC50 | item COc1ccc(C2=C(c3cc(OC)c(OC)c(OC)c3)/C(=N\O)C(O)C2)cc1O (stereo not drawn) | system: DU-145
10

# query: IC50 | item COc1cc(C2=C(c3ccc(SC)cc3)CC(O)/C2=N/O)cc(OC)c1OC (stereo not drawn) | system: DU-145
2.5

* * *

test.method.notes: Aqueous solubility in phosphate buffer at pH 7.4
measured.attribute: solubility (µM)
Respond with the bare value in µM.

What does the record list as solubility for COc1ccc(C2=C(c3cc(OC)c(OC)c(OC)c3)/C(=N\O)C(O)C2)cc1 (configuration not stated) ?
360

What does the record list as solubility for COc1ccc(/C=C\c2cc(OC)c(OC)c(OC)c2)cc1O ?
123

* * *

Please provide measured half-life for the entries that follow.
test.method.notes: Half life in iv dosed Swiss Albino mouse plasma
Assay type: ADME, organism-based

What does the record list as half-life for COc1ccc(C2=C(c3cc(OC)c(OC)c(OC)c3)/C(=N\O)C(O)C2)cc1 (configuration not stated) ?
28.2 min

What does the record list as half-life for COc1ccc(/C=C\c2cc(OC)c(OC)c(OC)c2)cc1O ?
11.4 min

* * *

Please provide measured IC50 for the entries that follow.
Test system: DU-145
test.method.notes: Cytotoxicity against human DU145 cells after 72 hrs by MTT assay
Assay type: cell-based
test.conditions: Homo sapiens, DU-145, 72 h; read-out: IC50
Respond with the bare value in mg/L.

What does the record list as IC50 for COc1ccc(C2=C(c3cc(OC)c(OC)c(OC)c3)C(=O)CC2O[Si](C)(C)C(C)(C)C)cc1O (stereo not drawn) ?
75

What does the record list as IC50 for COc1ccc(C2=C(c3cc(OC)c(OC)c(OC)c3)/C(=N\O)C(O)C2)cc1Cl (stereo not drawn) ?
16

What does the record list as IC50 for COCOc1cc(C2=C(c3cc(OC)c(OC)c(OC)c3)C(=O)CC2O[Si](C)(C)C(C)(C)C)ccc1OC (stereo not drawn) ?
34

What does the record list as IC50 for COc1ccc(C2=C(c3cc(OC)c(OC)c(OC)c3)/C(=N\O)CC2O)cc1O (stereo not drawn) ?
23

What does the record list as IC50 for COc1ccc(C2=C(c3cc(OC)c(OC)c(OC)c3)C(=O)C(O)C2)cc1F (stereo not drawn) ?
27

What does the record list as IC50 for COc1ccc(C2=C(c3cc(OC)c(OC)c(OC)c3)C(=O)C(OC(C)=O)C2)cc1Cl (stereo not drawn) ?
64

What does the record list as IC50 for COc1ccc(C2=C(c3cc(OC)c(OC)c(OC)c3)CC(O)C2=O)cc1N (stereo not drawn) ?
41

What does the record list as IC50 for COc1ccc(C2=C(c3cc(OC)c(OC)c(OC)c3)/C(=N\O)C(OC(C)=O)C2)cc1Cl (stereo not drawn) ?
17

* * *

System: DU-145
test.method.notes: Cytotoxicity against human DU145 cells after 72 hrs by MTT assay
Assay type: cell-based
test.conditions: Homo sapiens, DU-145, 72 h; read-out: IC50
measured.attribute: IC50

What does the record list as IC50 for O/N=C1/CC(O)C(c2ccccc2)=C1c1ccccc1 (stereo unspecified) ?
> 100 µg/mL

What does the record list as IC50 for COc1cc(C2=C(c3cc(C)c(OC)c(C)c3)C(OC(C)=O)CC2=O)cc(OC)c1OC (stereo unspecified) ?
> 100 µg/mL

What does the record list as IC50 for COc1ccc(C2=C(c3cc(OC)c(OC)c(OC)c3)CC(O[Si](C)(C)C(C)(C)C)C2=O)cc1[N+](=O)[O-] (stereo unspecified) ?
> 100 µg/mL

What does the record list as IC50 for COc1ccc(C2=C(c3cc(OC)c(OC)c(OC)c3)C(=O)CC2O[Si](C)(C)C(C)(C)C)cc1 (stereo unspecified) ?
> 100 µg/mL

What does the record list as IC50 for COc1ccc(C2=C(c3cc(OC)c(OC)c(OC)c3)C(=O)C(OC(C)=O)C2)cc1O (stereo unspecified) ?
> 100 µg/mL

What does the record list as IC50 for COc1ccc(C2=C(c3cc(OC)c(OC)c(OC)c3)C(=O)C(OC(C)=O)C2)cc1OC(C)C (stereo unspecified) ?
> 100 µg/mL

What does the record list as IC50 for COc1cc(C2=C(c3cc(C)c(OC)c(C)c3)C(O)CC2=O)cc(OC)c1OC (stereo unspecified) ?
> 100 µg/mL

What does the record list as IC50 for COc1ccc(OC)c(C2=C(c3cc(OC)c(OC)c(OC)c3)C(=O)CC2O)c1 (stereo unspecified) ?
> 100 µg/mL

What does the record list as IC50 for COc1ccc(C2=C(c3cc(OC)c(OC)c(OC)c3)C(=O)C(O)C2)cc1OC(C)C (stereo unspecified) ?
> 100 µg/mL

What does the record list as IC50 for COc1ccc(C2=C(c3cc(OC)c(OC)c(OC)c3)/C(=N\O)C(O)C2)cc1 (stereo unspecified) ?
> 100 µg/mL

What does the record list as IC50 for COc1cc(C2=C(c3cc(C)c(OC)c(C)c3)C(OC(C)=O)C/C2=N/O)cc(OC)c1OC (stereo unspecified) ?
> 100 µg/mL

* * *

Test system: DU-145
test.method.notes: Cytotoxicity against human DU145 cells after 72 hrs by MTT assay
Format: cell-based
test.conditions: Homo sapiens, DU-145, 72 h; read-out: IC50
measured.attribute: IC50

What does the record list as IC50 for COc1ccc(C2=C(c3cc(OC)c(OC)c(OC)c3)C(=O)C(OC(C)=O)C2)cc1 (stereo not given) ?
> 100 mg/L

What does the record list as IC50 for COc1ccc(C2=C(c3cc(OC)c(OC)c(OC)c3)C(=O)CC2O[Si](C)(C)C(C)(C)C)cc1OC (stereo not given) ?
> 100 mg/L

What does the record list as IC50 for C=CCOc1cc(C2=C(c3cc(OC)c(OC)c(OC)c3)/C(=N\O)C(O)C2)ccc1OC (stereo not given) ?
> 100 mg/L

What does the record list as IC50 for COc1ccc(C2=C(c3cc(OC)c(OC)c(OC)c3)C(=O)C(O)C2)cc1NC(=O)c1ccccc1 (stereo not given) ?
> 100 mg/L

What does the record list as IC50 for COc1cc(C2=C(c3ccc(OCC(=O)[O-])cc3)C(O)CC2=O)cc(OC)c1OC.[Na+] (stereo not given) ?
> 100 mg/L

What does the record list as IC50 for COC(=O)c1cc(C2=C(c3cc(OC)c(OC)c(OC)c3)C(=O)CC2O[Si](C)(C)C(C)(C)C)ccc1OC (stereo not given) ?
> 100 mg/L

What does the record list as IC50 for COc1ccc(C2=C(c3cc(OC)c(OC)c(OC)c3)/C(=N\O)C(OC(C)=O)C2)cc1 (stereo not given) ?
> 100 mg/L

What does the record list as IC50 for COc1ccc(C2=C(c3cc(OC)c(OC)c(OC)c3)C(=O)C(O)C2)cc1 (stereo not given) ?
> 100 mg/L

What does the record list as IC50 for COc1ccc(C2=C(c3cc(OC)c(OC)c(OC)c3)C(=O)C(OC(C)=O)C2)cc1NC=O (stereo not given) ?
> 100 mg/L

What does the record list as IC50 for COc1cc(C2=C(c3cc(C)c(OC)c(C)c3)C(O[Si](C)(C)C(C)(C)C)CC2=O)cc(OC)c1OC (stereo not given) ?
> 100 mg/L
